# target-under-test: UniProt P08581
# assay-method-text: Inhibition of TPR-met autophosphorylation expressed in HEK293T cells after 150 mins by ELISA
# Type: cell-based
# condition-notes: hek-293t
# Sequence (P08581 25-1390 limits assumed): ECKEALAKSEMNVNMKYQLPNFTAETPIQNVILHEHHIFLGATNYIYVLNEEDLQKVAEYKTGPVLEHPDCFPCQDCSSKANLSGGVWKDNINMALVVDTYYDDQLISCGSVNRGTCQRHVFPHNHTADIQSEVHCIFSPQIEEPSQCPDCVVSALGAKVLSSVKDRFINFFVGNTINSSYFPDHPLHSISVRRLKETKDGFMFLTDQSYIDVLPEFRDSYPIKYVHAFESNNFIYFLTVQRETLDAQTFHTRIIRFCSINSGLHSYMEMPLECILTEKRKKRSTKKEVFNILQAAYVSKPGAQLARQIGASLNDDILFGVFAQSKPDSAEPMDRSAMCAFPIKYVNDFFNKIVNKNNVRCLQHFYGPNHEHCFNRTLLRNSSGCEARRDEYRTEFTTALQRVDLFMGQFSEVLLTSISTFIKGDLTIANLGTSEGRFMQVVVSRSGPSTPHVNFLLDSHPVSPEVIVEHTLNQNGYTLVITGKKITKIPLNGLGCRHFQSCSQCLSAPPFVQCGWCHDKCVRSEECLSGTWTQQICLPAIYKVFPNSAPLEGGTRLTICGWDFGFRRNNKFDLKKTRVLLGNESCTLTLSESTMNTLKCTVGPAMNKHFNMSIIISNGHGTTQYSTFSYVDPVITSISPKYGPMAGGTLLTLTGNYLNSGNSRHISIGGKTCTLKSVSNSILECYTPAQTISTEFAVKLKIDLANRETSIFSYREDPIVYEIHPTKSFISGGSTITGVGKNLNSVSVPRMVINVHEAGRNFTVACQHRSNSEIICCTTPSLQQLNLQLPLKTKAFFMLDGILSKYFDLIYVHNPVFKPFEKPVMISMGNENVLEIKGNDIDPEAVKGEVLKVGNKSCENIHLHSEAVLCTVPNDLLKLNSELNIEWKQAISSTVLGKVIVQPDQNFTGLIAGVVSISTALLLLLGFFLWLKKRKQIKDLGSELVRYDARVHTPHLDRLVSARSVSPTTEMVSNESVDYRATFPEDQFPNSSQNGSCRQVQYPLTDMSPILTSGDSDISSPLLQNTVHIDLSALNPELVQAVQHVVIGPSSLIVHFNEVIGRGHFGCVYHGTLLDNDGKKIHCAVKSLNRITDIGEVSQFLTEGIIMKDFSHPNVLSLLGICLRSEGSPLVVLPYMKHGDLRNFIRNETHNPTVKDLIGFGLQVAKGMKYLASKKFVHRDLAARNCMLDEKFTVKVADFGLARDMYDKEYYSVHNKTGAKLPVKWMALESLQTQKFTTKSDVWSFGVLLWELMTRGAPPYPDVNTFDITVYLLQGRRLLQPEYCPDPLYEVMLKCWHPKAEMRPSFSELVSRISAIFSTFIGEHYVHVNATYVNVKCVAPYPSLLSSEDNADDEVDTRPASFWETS
Assign labels as follows, please: TRUE for IC50 below 600 nM; FALSE for IC50 equal to or exceeding 600 nM.

Please review the following examples before continuing.
| molecular-string | category-label |
| --- | --- |
| Cn1cnc(C(=O)c2cc3nccc(Oc4ccc(NC(=O)CC(=O)Nc5ccccc5)cc4F)c3s2)c1 | TRUE |
| CCn1cnc(-c2cc3nccc(Oc4ccc(NC(=O)CC(=O)Nc5ccccc5OC)cc4F)c3s2)c1 | TRUE |
| CN(C)CCn1cnc(C(=O)c2cc3nccc(Oc4ccc(NC(=O)CC(=O)Nc5ccccc5)cc4F)c3s2)c1 | TRUE |
| O=C(CC(=O)Nc1ccc(Oc2ccnc3cc(C(=O)N4CCCC4)sc23)c(F)c1)Nc1ccccc1 | FALSE |
| O=C(O)Cn1cnc(C(=O)c2cc3nccc(Oc4ccc(NC(=O)CC(=O)Nc5ccccc5)cc4F)c3s2)c1 | FALSE |

Is it true that IC50 reported for CCn1cnc(-c2cc3nccc(Oc4ccc(NC(=O)CC(=O)Nc5cccc(F)c5)cc4F)c3s2)c1 is less than 600 nM? FALSE

Is it true that IC50 reported for CCn1cnc(-c2cc3nccc(Oc4ccc(NC(=O)CC(=O)N(C)c5ccccc5)cc4F)c3s2)c1 is less than 600 nM? TRUE

----------
Listed compounds paired with reported pIC50
# target-under-test: UniProtKB P08581
# assay-method-text: Inhibition of GST-fused recombinant C-met expressed in baculovirus infected high five cells after 30 mins by DELFIA assay
# Sequence (P08581 whole entry, the tested form may be a part): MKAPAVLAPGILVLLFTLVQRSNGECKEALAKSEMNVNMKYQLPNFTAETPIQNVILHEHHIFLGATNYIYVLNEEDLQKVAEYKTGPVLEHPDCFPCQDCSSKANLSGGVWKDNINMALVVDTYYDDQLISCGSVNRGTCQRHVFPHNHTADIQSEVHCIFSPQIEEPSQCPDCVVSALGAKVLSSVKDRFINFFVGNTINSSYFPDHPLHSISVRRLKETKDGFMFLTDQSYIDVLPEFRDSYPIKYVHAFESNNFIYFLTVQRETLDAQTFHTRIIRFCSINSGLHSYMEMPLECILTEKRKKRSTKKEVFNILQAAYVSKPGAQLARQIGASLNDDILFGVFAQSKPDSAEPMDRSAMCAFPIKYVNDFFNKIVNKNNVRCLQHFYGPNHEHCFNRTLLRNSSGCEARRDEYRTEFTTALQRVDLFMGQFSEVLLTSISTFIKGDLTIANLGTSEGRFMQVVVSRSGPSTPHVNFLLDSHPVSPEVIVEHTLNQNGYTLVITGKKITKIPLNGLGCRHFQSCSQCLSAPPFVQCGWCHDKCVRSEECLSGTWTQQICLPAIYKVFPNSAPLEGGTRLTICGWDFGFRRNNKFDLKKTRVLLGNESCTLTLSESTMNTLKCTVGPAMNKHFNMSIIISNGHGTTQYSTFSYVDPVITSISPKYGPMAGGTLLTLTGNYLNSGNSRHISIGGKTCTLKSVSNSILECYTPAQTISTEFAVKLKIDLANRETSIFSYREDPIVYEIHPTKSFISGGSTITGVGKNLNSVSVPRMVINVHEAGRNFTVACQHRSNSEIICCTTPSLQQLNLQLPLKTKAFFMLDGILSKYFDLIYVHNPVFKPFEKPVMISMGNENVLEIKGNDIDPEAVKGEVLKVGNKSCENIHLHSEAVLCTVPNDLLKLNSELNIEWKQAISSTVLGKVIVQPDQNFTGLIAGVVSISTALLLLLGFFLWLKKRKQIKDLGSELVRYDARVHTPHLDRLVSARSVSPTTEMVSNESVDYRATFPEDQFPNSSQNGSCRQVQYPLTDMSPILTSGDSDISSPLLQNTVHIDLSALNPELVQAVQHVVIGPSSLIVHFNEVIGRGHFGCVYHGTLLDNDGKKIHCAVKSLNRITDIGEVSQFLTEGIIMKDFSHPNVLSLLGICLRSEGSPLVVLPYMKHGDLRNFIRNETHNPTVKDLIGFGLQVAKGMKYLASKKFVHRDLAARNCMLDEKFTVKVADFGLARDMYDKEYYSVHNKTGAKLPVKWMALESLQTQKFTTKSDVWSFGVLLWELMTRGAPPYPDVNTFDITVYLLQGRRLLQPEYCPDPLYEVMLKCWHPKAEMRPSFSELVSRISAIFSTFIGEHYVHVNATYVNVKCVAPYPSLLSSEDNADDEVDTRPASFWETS
The meaning of pIC50 here: minus log10 of the concentration in molar units.

| molecular-string | assay-endpoint | result-number |
| --- | --- | --- |
| CCn1cnc(-c2cc3nccc(Oc4ccc(NC(=O)CC(=O)N(C)c5ccccc5)cc4F)c3s2)c1 | pIC50 | 7.48 |
| O=C(O)Cn1cnc(C(=O)c2cc3nccc(Oc4ccc(NC(=O)CC(=O)Nc5ccccc5)cc4F)c3s2)c1 | pIC50 | 7.44 |
| CCn1cnc(C(=O)c2cc3nccc(Oc4ccc(NC(=O)CC(=O)Nc5ccccc5)cc4F)c3s2)c1 | pIC50 | 7.72 |
| Cn1cnc(C(=O)c2cc3nccc(Oc4ccc(NC(=O)CC(=O)Nc5ccccc5)cc4F)c3s2)c1 | pIC50 | 7.60 |

Form field: pIC50 recorded for CN(C)CCn1cnc(C(=O)c2cc3nccc(Oc4ccc(NC(=O)CC(=O)Nc5ccccc5)cc4F)c3s2)c1 with UniProtKB P08581 (enter value) 7.70

----------
# target-under-test: Hepatocyte growth factor receptor (Homo sapiens, UniProt P08581)
# assay-method-text: Inhibition of GST-fused recombinant C-met expressed in baculovirus infected high five cells after 30 mins by DELFIA assay
assay-endpoint: IC50 (nM)
// units = nM; emit number, no label

| molecular-string | IC50 / nM |
| --- | --- |
| CCn1cnc(-c2cc3nccc(Oc4ccc(NC(=O)C5(C(=O)Nc6ccccc6)CC5)cc4F)c3s2)c1 | 24 |
| CCn1cnc(-c2cc3nccc(Oc4ccc(NC(=O)CC(=O)Nc5ccccc5F)cc4F)c3s2)c1 | 32 |
| CCn1cnc(-c2cc3nccc(Oc4ccc(NC(=O)CC(=O)Nc5ccccc5O)cc4F)c3s2)c1 | 26 |
| CCn1cnc(-c2cc3nccc(Oc4ccc(NC(=O)CC(=O)Nc5cccc(F)c5)cc4F)c3s2)c1 | 52 |
| CCn1cnc(-c2cc3nccc(Oc4ccc(NC(=O)C5(C(=O)Nc6ccccc6F)CC5)cc4F)c3s2)c1 | 38 |

Next:
Name the recorded IC50 for CCn1cnc(-c2cc3nccc(Oc4ccc(NC(=O)CC(=O)Nc5ccc(F)cc5)cc4F)c3s2)c1 . 24
